Record form. Attribute: viability at 28.5 h, 10 µM. Fill in for each entry.
assay: in vitro; details: human, hela cells, % viability
Kindly provide the numeric value in % only, without the unit symbol.

// query viability at 28.5 h, 10 µM value for entry Cc1ccc(OCc2nnc(SCc3cccc(C#N)c3)n2N)cc1C 84.1

Fill in the blank: the reported viability at 28.5 h, 10 µM of O=C(CCn1cnc2ccccc2c1=O)Nc1cccc(C(F)(F)F)c1 is ____. 91.5

Which viability at 28.5 h, 10 µM is listed for OCC[C@H]1CN2CCCC2CN1Cc1cccn1-c1cccc(F)c1 (stereo partly drawn) ? 86.1

Consider the compound Cc1ncsc1C(=O)N1CCCC(c2cc3cnccc3[nH]2)C1 (stereo not drawn) and give its measured viability at 28.5 h, 10 µM. 94

Need viability at 28.5 h, 10 µM of Cc1noc(C)c1COc1ccc(C(=O)N[C@@H]2CN(C(=O)NC(C)C)CCC[C@H]2O)cc1 , thanks. 93.1

Form field: reported viability at 28.5 h, 10 µM of CC(C)Oc1ncc(C(=O)Nc2ccc(OCCC(N)=O)cc2)cc1Cl 102

I am curious: what viability at 28.5 h, 10 µM value has been reported for CC(NC(=O)c1ncoc1-c1ccc(F)cc1)c1cccnc1 (stereo not drawn) ? 103

Reported viability at 28.5 h, 10 µM for CCCc1ccc(N(C)C(=O)c2ccc(C(C)(C)C)cc2)cc1 : what is it? 103

Need viability at 28.5 h, 10 µM of CCOc1cc(/C=C2\SC(=N)NC2=O)ccc1OS(=O)(=O)c1ccc(NC(C)=O)cc1 , thanks. 94
